Below, each entry is listed alongside its reported IC50.
target entity: Human Calpain 2/NS1 (Homo sapiens)
Sequence (P17655 whole entry, one chain of several): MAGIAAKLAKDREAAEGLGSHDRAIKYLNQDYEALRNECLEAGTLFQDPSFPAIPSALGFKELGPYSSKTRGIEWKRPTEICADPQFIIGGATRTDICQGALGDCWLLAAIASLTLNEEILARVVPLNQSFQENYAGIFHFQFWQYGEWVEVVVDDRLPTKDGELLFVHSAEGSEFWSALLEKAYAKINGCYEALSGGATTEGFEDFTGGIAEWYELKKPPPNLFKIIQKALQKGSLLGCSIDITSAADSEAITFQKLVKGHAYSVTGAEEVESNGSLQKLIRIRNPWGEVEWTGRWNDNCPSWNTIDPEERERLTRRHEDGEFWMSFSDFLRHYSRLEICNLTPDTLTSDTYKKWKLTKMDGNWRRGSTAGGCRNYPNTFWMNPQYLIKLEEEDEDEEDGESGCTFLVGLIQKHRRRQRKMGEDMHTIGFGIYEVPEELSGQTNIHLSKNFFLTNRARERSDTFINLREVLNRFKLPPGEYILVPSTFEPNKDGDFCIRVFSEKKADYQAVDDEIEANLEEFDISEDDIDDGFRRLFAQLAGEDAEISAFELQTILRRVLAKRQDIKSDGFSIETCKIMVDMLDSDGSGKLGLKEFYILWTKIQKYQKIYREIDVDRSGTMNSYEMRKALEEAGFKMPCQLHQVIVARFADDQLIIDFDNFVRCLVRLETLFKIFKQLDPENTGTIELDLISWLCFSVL
procedure summary: Calpain inhibition continuous fluorescence (FRET) assay, Human Calpain 2/NS1
Type: biochemical
assay conditions: Column B; read-out: Human Calpain 2/NS1 IC50

Worked cases, answers included:
compound: NC(=O)C(=O)[C@H](Cc1ccccc1)NC(=O)c1cnnn1-c1ccccc1 [Compound 263]
target entity: Human Calpain 2/NS1 (Homo sapiens)
property: IC50
endpoint result: < 3 µM
--
compound: Cc1cc(C(=O)N[C@@H](Cc2ccccc2)C(=O)C(N)=O)n(-c2cnccn2)n1 [Compound 63]
target entity: Human Calpain 2/NS1 (Homo sapiens)
property: IC50
endpoint result: < 3 µM

Query: Tell me the measured IC50 of Cn1cc(C(=O)N[C@@H](Cc2ccccc2)C(=O)C(N)=O)c(-c2cncnc2)n1 [Compound 173] , please.
Response: < 3 µM

Query: Then this compound: Cn1ncc(C(=O)N[C@@H](Cc2ccccc2)C(=O)C(N)=O)c1-c1cccc(C(F)(F)F)n1 [Compound 194]
Response: < 3 µM

Query: What do we get for Cc1cc(C(F)(F)F)cc(-n2nc(C)cc2C(=O)N[C@@H](Cc2ccccc2)C(=O)C(=O)NC2CC2)n1 [Compound 206] ?
Response: > 10 µM

Query: Continue with Cc1ccccc1-c1c(C(=O)N[C@@H](Cc2ccccc2)C(=O)C(N)=O)cnn1C [Compound 190]
Response: > 10 µM

Query: Would you kindly repeat that for Cc1cc(C(=O)N[C@@H](Cc2ccccc2)C(=O)C(N)=O)n(-c2cncc3ccccc23)n1 [Compound 133] ?
Response: < 3 µM

Query: Do the same for CCn1cc(C(=O)N[C@@H](Cc2ccccc2)C(=O)C(N)=O)c(-c2ccccc2)n1 [Compound 239] please
Response: < 3 µM

Query: What do you have for COc1ccc(C[C@H](NC(=O)c2c(C)noc2-c2ccccc2)C(=O)C(N)=O)cc1 [Compound 46] ?
Response: < 3 µM

Query: Same lookup for Cc1cc(C(=O)N[C@@H](Cc2ccccc2)C(=O)C(=O)NC2CC2)n(-c2nc(-c3ccccc3)cs2)n1 [Compound 203] , please.
Response: < 3 µM

* * *

target entity: Human Calpain 1/NS1 (Homo sapiens, UniProt P07384)
Sequence (P07384 1-714): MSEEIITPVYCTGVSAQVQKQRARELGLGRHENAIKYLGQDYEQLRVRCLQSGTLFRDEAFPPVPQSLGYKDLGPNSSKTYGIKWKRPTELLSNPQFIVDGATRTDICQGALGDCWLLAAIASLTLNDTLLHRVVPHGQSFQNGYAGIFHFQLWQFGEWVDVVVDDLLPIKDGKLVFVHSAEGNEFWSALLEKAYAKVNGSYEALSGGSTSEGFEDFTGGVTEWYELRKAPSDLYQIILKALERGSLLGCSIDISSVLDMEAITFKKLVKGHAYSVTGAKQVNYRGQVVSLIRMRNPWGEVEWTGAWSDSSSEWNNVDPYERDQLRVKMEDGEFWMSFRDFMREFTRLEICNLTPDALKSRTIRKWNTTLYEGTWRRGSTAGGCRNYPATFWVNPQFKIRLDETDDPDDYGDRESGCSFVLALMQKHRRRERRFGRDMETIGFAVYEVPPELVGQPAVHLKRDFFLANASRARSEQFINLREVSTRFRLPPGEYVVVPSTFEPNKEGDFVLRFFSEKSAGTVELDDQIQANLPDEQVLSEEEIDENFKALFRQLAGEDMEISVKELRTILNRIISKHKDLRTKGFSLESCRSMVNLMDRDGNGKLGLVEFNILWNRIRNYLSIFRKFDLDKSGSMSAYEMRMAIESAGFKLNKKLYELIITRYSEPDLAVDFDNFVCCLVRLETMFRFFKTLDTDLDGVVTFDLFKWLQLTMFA
Sequence (P04632 1-268 partner): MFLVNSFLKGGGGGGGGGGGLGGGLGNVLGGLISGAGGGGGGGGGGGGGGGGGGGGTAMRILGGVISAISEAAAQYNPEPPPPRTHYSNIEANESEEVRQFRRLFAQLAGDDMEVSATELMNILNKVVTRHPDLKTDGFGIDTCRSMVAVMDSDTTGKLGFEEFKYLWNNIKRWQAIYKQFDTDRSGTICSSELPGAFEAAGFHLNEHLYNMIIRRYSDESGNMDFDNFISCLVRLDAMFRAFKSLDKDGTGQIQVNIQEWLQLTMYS
procedure summary: Calpain inhibition continuous fluorescence (FRET) assay, Human Calpain 1/NS1
Format: biochemical
assay conditions: read-out: Human Calpain 1/NS1 IC50
pIC50: −log10 of the molar value.
property: pIC50

Some solved cases for reference:
compound: NC(=O)C(=O)C(Cc1ccccc1)NC(=O)c1nsnc1-c1cccc2c1OC(F)(F)O2 (centres unmarked) [Compound 578]
endpoint result: > 5.52
--
compound: Cn1cc(C(=O)N[C@@H](Cc2ccccc2)C(=O)CF)c(-c2ccccc2)n1 [Compound 476]
endpoint result: > 5.52
--
compound: Cn1cc(C(=O)NC(Cc2ccccc2)C(=O)C(N)=O)c(-c2ccccc2C(F)(F)F)n1 (centres unmarked) [Compound 513]
endpoint result: 5.00 to 5.52
--
compound: Cn1cc(C(=O)NC(CC(F)(F)F)C(=O)C(N)=O)c(-c2ccccc2)n1 (centres unmarked) [Compound 424]
endpoint result: 5.00 to 5.52
--
compound: Cc1nc(-c2cccc(F)c2)c(C(=O)NC(Cc2ccccc2)C(=O)C(N)=O)o1 (centres unmarked) [Compound 404]
endpoint result: > 5.52

Query: Provide the documented pIC50 with Human Calpain 1/NS1 (Homo sapiens, UniProt P07384) as the system for NC(=O)C(=O)C(Cc1ccccc1)NC(=O)c1c(C(F)(F)F)cnn1-c1ncccn1 (centres unmarked) [Compound 410]
Response: 5.00 to 5.52

Query: Same lookup for Cn1cc(C(=O)N[C@@H](Cc2ccccc2)C(=O)C(=O)NCCC(N)=O)c(-c2ccccc2)n1 [Compound 338] , please.
Response: > 5.52

Query: Next compound up: Cn1cc(C(=O)NC(Cc2ccccc2)C(=O)C(N)=O)c(-c2cncc3ccccc23)n1 (centres unmarked) [Compound 591]
Response: > 5.52

* * *

target entity: Human Calpain 9/NS1 (Homo sapiens, UniProt O14815)
Sequence (O14815 whole entry, one chain of several): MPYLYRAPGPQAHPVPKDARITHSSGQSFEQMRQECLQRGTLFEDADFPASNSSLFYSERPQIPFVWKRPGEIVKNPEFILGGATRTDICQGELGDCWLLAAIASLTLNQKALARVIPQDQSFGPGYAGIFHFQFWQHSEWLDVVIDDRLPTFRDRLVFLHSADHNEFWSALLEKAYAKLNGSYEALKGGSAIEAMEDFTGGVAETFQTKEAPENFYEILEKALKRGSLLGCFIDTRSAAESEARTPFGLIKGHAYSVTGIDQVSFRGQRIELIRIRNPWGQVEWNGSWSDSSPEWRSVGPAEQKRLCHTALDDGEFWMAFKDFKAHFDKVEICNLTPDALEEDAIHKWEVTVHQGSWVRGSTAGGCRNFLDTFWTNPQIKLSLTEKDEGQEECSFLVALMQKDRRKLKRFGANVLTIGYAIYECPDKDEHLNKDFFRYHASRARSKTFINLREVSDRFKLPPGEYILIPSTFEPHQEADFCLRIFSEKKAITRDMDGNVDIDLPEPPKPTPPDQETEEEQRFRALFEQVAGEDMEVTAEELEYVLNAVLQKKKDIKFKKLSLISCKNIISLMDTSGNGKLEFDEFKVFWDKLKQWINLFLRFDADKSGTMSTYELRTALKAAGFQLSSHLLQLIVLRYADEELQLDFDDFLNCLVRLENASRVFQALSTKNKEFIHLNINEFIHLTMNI
procedure summary: Calpain inhibition continuous fluorescence (FRET) assay, Human Calpain 9/NS1
Assay type: biochemical
assay conditions: read-out: Human Calpain 9/NS1 IC50
pIC50: −log10 of the molar value. Structures can show the parent of a compound that is named as a salt.
Items are presented alongside their recorded pIC50.

compound: COCCOCCNC(=O)C(=O)[C@H](Cc1ccccc1)NC(=O)c1cn(C)nc1-c1ccccc1
endpoint result: > 5.52

compound: Cc1nc(-c2ccccc2)c(C(=O)NC(Cc2cc(Cl)cc(Cl)c2)C(=O)C(N)=O)o1 (stereo not drawn)
endpoint result: > 5.52

compound: Cc1ccc(F)c(-c2nn(C(F)F)cc2C(=O)NC(Cc2ccccc2)C(=O)C(N)=O)c1 (stereo not drawn)
endpoint result: > 5.52

Now look at this one.
Query: Would you mind telling me what pIC50 value was observed for CCN(CC)Cc1ccc(Oc2ccc(-n3nc(C)cc3C(=O)NC(Cc3ccccc3)C(=O)C(N)=O)cc2)cc1 (stereo not drawn) [Compound 441, hydrochloride] ?
Response: < 5.00

* * *

System: Calpain activity in SH-SY5Y cells
procedure summary: SH-SY5Y + AMC fluorescence assay (Suc-LLVY-AMC substrate)
Format: cell-based
assay conditions: read-out: SH-SY5Y + AMC IC50
property: IC50

The cases that follow already have their IC50 on record.
compound: Cn1cc(C(=O)NC(Cc2ccccc2)C(=O)C(N)=O)c(-c2cccc3ncccc23)n1 (stereo not drawn) [Compound 597]
target entity: Calpain activity in SH-SY5Y cells
endpoint result: 10 to 25 µM
//
compound: Cc1cccc(-c2nn(C)cc2C(=O)NC(Cc2ccccc2)C(=O)C(N)=O)c1F (stereo not drawn) [Compound 517]
target entity: Calpain activity in SH-SY5Y cells
endpoint result: 10 to 25 µM
//
compound: CC(NC(=O)c1nsnc1-c1ccccc1)C(=O)C(N)=O (stereo not drawn) [Compound 468]
target entity: Calpain activity in SH-SY5Y cells
endpoint result: > 25 µM

Query: Reported IC50, compound Cc1cc(C(=O)NC(C=O)Cc2ccccc2)n(-c2ccccn2)n1 (stereo not drawn) [Compound 398] : ____
Response: > 25 µM

Query: Further, for Cc1cccc(-c2nn(C)cc2C(=O)N[C@H](C=O)Cc2ccccc2)c1 [Compound 329] ?
Response: > 25 µM

Query: Entry Cc1cc(C(=O)NC(Cc2ccccc2)C(O)C(N)=O)n(-c2ccnc(Cl)n2)n1 (stereo not drawn) [Compound 434] please
Response: > 25 µM

Query: # repeat for Cc1csc(-c2nn(C)cc2C(=O)NC(Cc2ccccc2)C(=O)C(N)=O)c1 (stereo not drawn) [Compound 504]
Response: > 25 µM

* * *

The entries below are paired with their reported IC50.
target entity: Human Calpain 2/NS1 (Homo sapiens)
procedure summary: Calpain inhibition continuous fluorescence (FRET) assay, Human Calpain 2/NS1
Type: biochemical
assay conditions: read-out: Human Calpain 2/NS1 IC50

Recorded results for 5 compounds are shown here.
compound: NC(=O)C(=O)C(Cc1ccccc1)NC(=O)c1cn(-c2cccc(F)c2)nc1-c1ccccc1 (centres unmarked)
target entity: Human Calpain 2/NS1 (Homo sapiens)
property: IC50
endpoint result: < 3 µM
//
compound: C#CC[C@H](NC(=O)c1cn(C)nc1-c1ccccc1F)C(=O)C(N)=O
target entity: Human Calpain 2/NS1 (Homo sapiens)
property: IC50
endpoint result: < 3 µM
//
compound: Cn1cc(C(=O)NC(Cc2ccccc2)C(=O)C(N)=O)c(N2CCN(C(=O)OC(C)(C)C)CC2)n1 (centres unmarked)
target entity: Human Calpain 2/NS1 (Homo sapiens)
property: IC50
endpoint result: 3 to 10 µM
//
compound: NC(=O)C(=O)C(Cc1ccccc1)NC(=O)c1cn(C(F)F)nc1-c1ccccc1F (centres unmarked)
target entity: Human Calpain 2/NS1 (Homo sapiens)
property: IC50
endpoint result: < 3 µM
//
compound: Cn1cc(C(=O)NC(Cc2ccccc2)C(=O)C(N)=O)c(-c2ccc(Cl)s2)n1 (centres unmarked)
target entity: Human Calpain 2/NS1 (Homo sapiens)
property: IC50
endpoint result: < 3 µM

Query: Item Cn1cc(C(=O)NC(Cc2ccccc2)C(=O)C(N)=O)c(N2CCS(=O)(=O)CC2)n1 (centres unmarked) has what recorded IC50?
Response: 3 to 10 µM

Query: Cool, now Cn1cc(C(=O)NC(Cc2ccccc2)C(=O)C(N)=O)c(-c2ccc3ncccc3c2)n1 (centres unmarked)
Response: < 3 µM

Query: Same question, Cc1nc(-c2cccc(F)c2)c(C(=O)N[C@H](C=O)Cc2ccccc2)o1 this time
Response: < 3 µM
